- targetSystem: HLA-B*58:01
- assayInfo: IEDB peptide-MHC binding, purified MHC/competitive/radioactivity; filed as Kd, often an IC50 or EC50 that approximates it; bounds were set here for any values at or beyond the usual limits of such assays
- measurementConditions: source organism: Dengue virus 4 Philippines/H241/1956
measureName: pKd
Value format note: pKd is -log10 of concentration (mol/L); just state the number.

Q. For the sequence LSSRATWAKN , what pKd is on record?
A. 6.81

---

- targetSystem: HLA-B*18:01
- assayInfo: IEDB peptide-MHC binding, purified MHC/competitive/radioactivity; filed as Kd, often an IC50 or EC50 that approximates it; bounds were set here for any values at or beyond the usual limits of such assays
- measurementConditions: source organism: SARS coronavirus Tor2
# pKd annotations
Value format note: pKd is -log10 of concentration (mol/L); just state the number.

Some entries whose results are on file:
LEWLAEVVKL    5.91
YEQYIKWPWY    7.10
GEDIQLLKA    5.97

Now turn to the next sequence.
Q. For the sequence KENDSKEGFF , what pKd is on record?
A. 5.13

---

- targetSystem: HLA-B*39:01
- assayInfo: IEDB peptide-MHC binding, purified MHC/competitive/fluorescence; filed as Kd, often an IC50 or EC50 that approximates it; bounds were set here for any values at or beyond the usual limits of such assays
- measurementConditions: source organism: Reston ebolavirus - Reston (1989)
pKd: −log10 of the molar value.
measureName: pKd

Q. What value of pKd on HLA-B*39:01 does LIMEFNSLL have?
A. ≤ 4.70

---

- targetSystem: HLA-A*24:02
- assayInfo: IEDB peptide-MHC binding, purified MHC/competitive/fluorescence; bounds were set here for any values at or beyond the usual limits of such assays
- measurementConditions: source organism: Vaccinia virus WR
measureName: pIC50
Value format note: pIC50 is -log10 of concentration (mol/L); just state the number.

Q. For the sequence IRWLGGILP , what pIC50 is on record?
A. 4.32

---

# Kd annotations
- targetSystem: HLA-B*07:02
- assayInfo: IEDB peptide-MHC binding, purified MHC/competitive/radioactivity; filed as Kd, often an IC50 or EC50 that approximates it; bounds were set here for any values at or beyond the usual limits of such assays
- measurementConditions: source organism: Dengue virus 4 Philippines/H241/1956
For clarity, give the value followed by its unit.

Some entries whose results are on file:
SPIEDIEREI    5450 nM
KPKGKVVDL    43.4 nM

Now turn to the next sequence.
Q. For the sequence APHHKILAKA , what Kd is on record?
A. 407 nM

---

- targetSystem: HLA-A*68:01
- assayInfo: IEDB peptide-MHC binding, purified MHC/competitive/radioactivity; filed as Kd, often an IC50 or EC50 that approximates it; bounds were set here for any values at or beyond the usual limits of such assays
- measurementConditions: source organism: Vaccinia virus WR
# pKd annotations
Value format note: pKd is -log10 of concentration (mol/L); just state the number.

Some entries whose results are on file:
AITPTIEDDK    5.18
RVDIYYNGNK    6.92
VTMMKYCSY    6.28
TTKDYFSFKK    9.25
KIVDHIVMY    5.10

Q. For the sequence SVEDVSAFVR , what pKd is on record?
A. 7.81

Q. For the sequence KTDFKVVKK , what pKd is on record?
A. 6.44

Q. For the sequence TFNSLNTDDY , what pKd is on record?
A. 5.39

Q. For the sequence KLITPNYMK , what pKd is on record?
A. 5.55

Q. For the sequence NATDFWRLY , what pKd is on record?
A. 7.28

Q. For the sequence YVKNGTKGK , what pKd is on record?
A. 7.41

---

- targetSystem: HLA-B*40:01
- assayInfo: IEDB peptide-MHC binding, purified MHC/direct/fluorescence; filed as Kd, often an IC50 or EC50 that approximates it; bounds were set here for any values at or beyond the usual limits of such assays
- measurementConditions: source organism: Influenza A virus (A/swine/Hong Kong/5190/99(H3N2))
pKd: −log10 of the molar value.
measureName: pKd

Q. For the sequence YMFESKSMK , what pKd is on record?
A. ≤ 4.70

---

- targetSystem: HLA-A*11:01
- assayInfo: IEDB peptide-MHC binding, purified MHC/direct/fluorescence; filed as Kd, often an IC50 or EC50 that approximates it; bounds were set here for any values at or beyond the usual limits of such assays
- measurementConditions: source organism: Francisella tularensis subsp. holarctica LVS
measureName: Kd (nM)
Give your result in nM as a bare value.

Q. For the sequence GVYTGSIGY , what Kd is on record?
A. 1.6

---

- targetSystem: HLA-A*03:01
- assayInfo: IEDB peptide-MHC binding, purified MHC/competitive/fluorescence; filed as Kd, often an IC50 or EC50 that approximates it; bounds were set here for any values at or beyond the usual limits of such assays
- measurementConditions: source organism: Escherichia coli 536
measureName: Kd

Q. For the sequence GISRNTVKR , what Kd is on record?
A. ≥ 20 µM

---

- targetSystem: HLA-A*69:01
- assayInfo: IEDB peptide-MHC binding, purified MHC/direct/fluorescence; filed as Kd, often an IC50 or EC50 that approximates it; bounds were set here for any values at or beyond the usual limits of such assays
- measurementConditions: source organism: Influenza A virus (A/swine/Korea/S190/2004(H9N2))
pKd: −log10 of the molar value.
measureName: pKd

Q. For the sequence IPKRNRSIL , what pKd is on record?
A. ≤ 4.70

---

# pKd annotations
- targetSystem: HLA-B*44:02
- assayInfo: IEDB peptide-MHC binding, purified MHC/competitive/radioactivity; filed as Kd, often an IC50 or EC50 that approximates it; bounds were set here for any values at or beyond the usual limits of such assays
- measurementConditions: source organism: Mammarenavirus lassaense
Value format note: pKd is -log10 of concentration (mol/L); just state the number.

AEFKSRFFVW    7.87

Now turn to the next sequence.
Q. For the sequence EELITDTEFL , what pKd is on record?
A. 5.32

---

- targetSystem: HLA-A*01:01
- assayInfo: IEDB peptide-MHC binding, purified MHC/direct/fluorescence; filed as Kd, often an IC50 or EC50 that approximates it; bounds were set here for any values at or beyond the usual limits of such assays
- measurementConditions: source organism: Reston ebolavirus - Reston
measureName: Kd

Q. For the sequence ITDEINQIK , what Kd is on record?
A. ≥ 20 µM

---

- targetSystem: HLA-A*03:01
- assayInfo: IEDB peptide-MHC binding, purified MHC/competitive/radioactivity; filed as Kd, often an IC50 or EC50 that approximates it; bounds were set here for any values at or beyond the usual limits of such assays
- measurementConditions: source organism: Dengue virus 4 Philippines/H241/1956
measureName: Kd (nM)
Give your result in nM as a bare value.

AIKILTGFRK    103
TLFGPEREK    85.9
MTLMKGASK    18

Now turn to the next sequence.
Q. For the sequence RIMQRGLFGK , what Kd is on record?
A. 5.43

---

- targetSystem: HLA-A*33:01
- assayInfo: IEDB peptide-MHC binding, purified MHC/competitive/radioactivity; filed as Kd, often an IC50 or EC50 that approximates it; bounds were set here for any values at or beyond the usual limits of such assays
- measurementConditions: source organism: Vaccinia virus LC16M8
measureName: Kd (µM)
Give your result in µM as a bare value.

Q. For the sequence LFASADNHPK , what Kd is on record?
A. 9.86

---

- targetSystem: HLA-B*58:01
- assayInfo: IEDB peptide-MHC binding, purified MHC/direct/fluorescence; filed as Kd, often an IC50 or EC50 that approximates it; bounds were set here for any values at or beyond the usual limits of such assays
- measurementConditions: source organism: H9N2 subtype Influenza A virus (A/swine/Korea/S83/2004(H9N2))
measureName: Kd

Q. For the sequence HFQKDAKVL , what Kd is on record?
A. ≥ 20 µM

---

- targetSystem: HLA-B*45:06
- assayInfo: IEDB peptide-MHC binding, purified MHC/competitive/fluorescence; filed as Kd, often an IC50 or EC50 that approximates it; bounds were set here for any values at or beyond the usual limits of such assays
- measurementConditions: source organism: Giardia lamblia ATCC 50803
measureName: Kd

Q. For the sequence AEFPVGSTA , what Kd is on record?
A. ≥ 5 µM

---

- targetSystem: HLA-A*11:01
- assayInfo: IEDB peptide-MHC binding, purified MHC/direct/fluorescence; filed as Kd, often an IC50 or EC50 that approximates it; bounds were set here for any values at or beyond the usual limits of such assays
- measurementConditions: source organism: Mycobacterium tuberculosis
measureName: Kd

Q. For the sequence KPARGGSSI , what Kd is on record?
A. ≥ 20 µM
